experiment: microsome metabolite identification / stability, mouse liver microsomes; format: in vitro ADME; details: 37° C.
readout_name: remaining percentage of the parent nucleus after 60 min (%)
Number only, in %; omit the unit.

Would you please look over these solved cases?
[2H]C([2H])([2H])N1CCC(c2ncc(-c3cnc(N)c(OCc4cccc(C#CC(C)(C)O)c4)c3)s2)CC1
42.8
[2H]C([2H])([2H])N1CCC(n2cc(-c3cnc(N)c(OCc4cccc(C#CC(C)(C)O)c4)c3)cn2)CC1
55.0
CN1CCC(c2ncc(-c3cnc(N)c(OCc4cccc(C#CC(C)(C)O)c4)c3)s2)CC1 [Compound B1, reference compound]
1.24

[Q] Need remaining percentage of the parent nucleus after 60 min of CN1CCC(n2cc(-c3cnc(N)c(OCc4cccc(C#CC(C)(C)O)c4)c3)cn2)CC1 [Compound A1, reference compound] , thanks.
[A] 1.13

---

# remaining percentage of the parent nucleus after 60 min values compiled below
assay: microsome metabolite identification / stability, beagle liver microsomes; assay type: in vitro ADME; conditions: 37° C.
Number only, in %; omit the unit.

[2H]C([2H])([2H])N1CCC(c2ncc(-c3cnc(N)c(OCc4cccc(C#CC(C)(C)O)c4)c3)s2)CC1
8.9
CN1CCC(n2cc(-c3cnc(N)c(OCc4cccc(C#CC(C)(C)O)c4)c3)cn2)CC1 [Compound A1, reference compound]
0.17
[2H]C([2H])([2H])N1CCC(n2cc(-c3cnc(N)c(OCc4cccc(C#CC(C)(C)O)c4)c3)cn2)CC1
7.0

Next compound, please.
[Q] Need remaining percentage of the parent nucleus after 60 min of CN1CCC(c2ncc(-c3cnc(N)c(OCc4cccc(C#CC(C)(C)O)c4)c3)s2)CC1 [Compound B1, reference compound] , thanks.
[A] 0.12

---

# remaining percentage of the parent nucleus after 60 min values compiled below
test: microsome metabolite identification / stability, rat liver microsomes; assay type: in vitro ADME; details: 37° C.
Number only, in %; omit the unit.

Would you please look over these solved cases?
[2H]C([2H])([2H])N1CCC(c2ncc(-c3cnc(N)c(OCc4cccc(C#CC(C)(C)O)c4)c3)s2)CC1
43.9
[2H]C([2H])([2H])N1CCC(n2cc(-c3cnc(N)c(OCc4cccc(C#CC(C)(C)O)c4)c3)cn2)CC1
52.1
CN1CCC(n2cc(-c3cnc(N)c(OCc4cccc(C#CC(C)(C)O)c4)c3)cn2)CC1 [Compound A1, reference compound]
2.44

Next compound, please.
[Q] Need remaining percentage of the parent nucleus after 60 min of CN1CCC(c2ncc(-c3cnc(N)c(OCc4cccc(C#CC(C)(C)O)c4)c3)s2)CC1 [Compound B1, reference compound] , thanks.
[A] 11.21

---

assay: microsome metabolite identification / stability, human liver microsomes; type: in vitro ADME; settings: 37° C.
readout_name: remaining percentage of the parent nucleus after 60 min

[Q] Need remaining percentage of the parent nucleus after 60 min of CN1CCC(n2cc(-c3cnc(N)c(OCc4cccc(C#CC(C)(C)O)c4)c3)cn2)CC1 [Compound A1, reference compound] , thanks.
[A] 43.84%

[Q] Need remaining percentage of the parent nucleus after 60 min of [2H]C([2H])([2H])N1CCC(c2ncc(-c3cnc(N)c(OCc4cccc(C#CC(C)(C)O)c4)c3)s2)CC1 [Compound B2] , thanks.
[A] 70.4%

[Q] Need remaining percentage of the parent nucleus after 60 min of [2H]C([2H])([2H])N1CCC(n2cc(-c3cnc(N)c(OCc4cccc(C#CC(C)(C)O)c4)c3)cn2)CC1 [Compound A2] , thanks.
[A] 83.9%

[Q] Need remaining percentage of the parent nucleus after 60 min of CN1CCC(c2ncc(-c3cnc(N)c(OCc4cccc(C#CC(C)(C)O)c4)c3)s2)CC1 [Compound B1, reference compound] , thanks.
[A] 51.82%
